From: patent US12357621B2

System: HEL92.1.7 cells
Assay: CellTiter Glo cell viability assay (Example 5)
Assay type: cell-based
Conditions: Homo sapiens, HEL 92.1.7, 72 h, Day 3, read-out: single agent IC50
Experimental: Cells were seeded in 96-well plates at 10,000 cells per well in 100 μL of media containing either 0.1% DMSO or varying concentrations of drug. Cell viability was determined 3 days and 5 days later via the CellTiter GloLuminescent Cell Viability Assay from Promega (Madison, WI) according to the manufacturer's protocol. […] Luminescence was then detected using a chemiluminescence detection system (EnVision Multimode Microplate Reader; PerkinElmer).
measuredProperty: pIC50
Field pIC50 (float): negative decimal logarithm of the concentration in molar.

Name the reported pIC50 value associated with the compound Cc1nnn(C)c1-c1cnc2c3ccc(C(C)(C)O)cc3n([C@H](c3ccccc3)C3CCOCC3)c2c1 [Compound (I)]
7.82

###

test system: primary human myelofibrosis samples; assay: Colony formation assay in primary myelofibrosis samples (Example 2); assay type: cell-based; details: Homo sapiens, sample MF 33 (CALR); ruxolitinib alone; read-out: IC50 RUX
measuredProperty: pIC50
Scale explanation: pIC50 corresponds to minus log10 of a concentration expressed in moles per litre.

Given the entry N#CC[C@H](C1CCCC1)n1cc(-c2ncnc3[nH]ccc23)cn1 [ruxolitinib] , report its measured pIC50.
6.06

###

Experiment: First-in-human PK study of Compound (I) (Example 6)
Format: in vivo
Details: dose 1.25 mg; Cycle 2 Day 5; 5 days on/2 days off; read-out: Cmax Cycle 2 Steady State (geometric mean)
Description: A first-in-human study was conducted on Compound (I) with select advanced tumors and hematologic malignancies. PK data was available from 65 subjects across 5 doses and 3 schedules. Intensive samples were collected on Cycle 1 Day 1 and Cycle 2 Day 5, Day 7, or Day 14 based on dosing schedule (5 days on/2 days off, 7 days on/14 days off, and 14 days on/7 days off).
measuredProperty: Cmax
Value and unit, in that order.

Consider the molecule shown here: Cc1nnn(C)c1-c1cnc2c3ccc(C(C)(C)O)cc3n([C@H](c3ccccc3)C3CCOCC3)c2c1 [Compound (I)] What is its recorded Cmax?
577 nM

###

Assay: First-in-human PK study of Compound (I) (Example 6)
Type: in vivo
Details: human, in vivo; dose 3.0 mg; Cycle 2 Day 5; 5 days on/2 days off; read-out: Cmax Cycle 2 Steady State (geometric mean)
Description: A first-in-human study was conducted on Compound (I) with select advanced tumors and hematologic malignancies. PK data was available from 65 subjects across 5 doses and 3 schedules. Intensive samples were collected on Cycle 1 Day 1 and Cycle 2 Day 5, Day 7, or Day 14 based on dosing schedule (5 days on/2 days off, 7 days on/14 days off, and 14 days on/7 days off).
measuredProperty: Cmax (nM)
Only the number, expressed in nM, is required.

Any idea what its Cmax is? The compound is Cc1nnn(C)c1-c1cnc2c3ccc(C(C)(C)O)cc3n([C@H](c3ccccc3)C3CCOCC3)c2c1
1200

###

assay: First-in-human PK study of Compound (I) (Example 6); type: in vivo; conditions: human, in vivo; dose 4.5 mg; Cycle 2 Day 5; 5 days on/2 days off; read-out: Cmax Cycle 2 Steady State (geometric mean)
measuredProperty: Cmax (nM)
Record the value in nM, omitting the unit from your answer.

Could you share which Cmax value was measured for Cc1nnn(C)c1-c1cnc2c3ccc(C(C)(C)O)cc3n([C@H](c3ccccc3)C3CCOCC3)c2c1 [Compound (I)] ?
1840
